- System: MALME-3M melanoma
- METHOD: NCI-60 one-dose screen, 48 h
- CONDITION_DETAILS: 10 µM unless noted
This is part of a sample that, as a whole, favours compounds with a hit. Of some 83,000 tested, about 20% had one in any assay. Calls of active or inactive are those of the source. The calls were made as follows: active = growth percent below 10; inactive = the rest.
Your reply should match one of these outcome classes. 1 (yes) for active, 0 (no) for inactive

Below are worked cases with known answers.
1) Cc1cc(-c2ccccc2)c(C)n1Cc1ccc(Cl)cc1; 0 (no)
2) O=S(=O)(NCCCNc1cc(-c2cn(-c3ccccc3)nc2-c2cccc(O)c2)ccn1)c1cccc(F)c1; 0 (no)
3) COC1=CC(c2ccc[nH]2)=N/C1=C\c1[nH]c(C)c(C(=O)CCCCC(=O)Nc2ccccc2)c1C; 0 (no)
4) CCC1=C[C@@H]2CN(C1)Cc1c([nH]c3ccccc13)[C@@](C(=O)OC)(c1cc3c(cc1OC)N(C=O)[C@H]1[C@@](O)(C(=O)OC)[C@H](OC(C)=O)[C@]4(CC)[C@@H]5C[C@@H]5CN5CC[C@]31[C@@H]54)C2; 0 (no)

Task item: Can you look up the reported call for `Nc1cc2c(cc1N)-c1cc(N)c(N)cc1C2` for me?
Reply: 0 (no)

Task item: What was the test verdict on `CN(C)c1ccc(-c2ccc(-c3ccc(C(=N)N)cn3)o2)cc1` ?
Reply: 1 (yes)

Task item: Please share the test call associated with `COc1ccc(/C=C/c2nc(N3CCOCC3)c3cc(F)c(F)cc3n2)cc1OC` .
Reply: 0 (no)
